Test system: KM12 colon
test summary: NCI-60 one-dose screen, 48 h (100 = growth as untreated, 0 = no growth, -100 = all killed)
run conditions: 10 µM unless noted
Compounds without any hit were thinned out: in the full panel of roughly 83,000, 20% have a hit.
property measured: growth (%)
One number for each entry, in %.

As a guide, the following entries are already answered.
- molecule: "CC(=O)Cc1nsc(NC(=O)c2ccoc2COc2ccccc2)n1"
  growth [%]: 100
- molecule: "Fc1ccc2[nH]cc(-c3nc(-c4c[nH]c5ncccc45)cs3)c2c1"
  growth [%]: 38.9
- molecule: "COc1cccc(-c2nn(-c3ccccc3)cc2-c2ccnc(NCCCO)c2)c1"
  growth [%]: 34.1
- molecule: "C=C1C(=O)O[C@H]2[C@H]1CC/C(COC(=O)NCCc1c[nH]c3ccccc13)=C\\CC[C@@]1(C)O[C@@H]21"
  growth [%]: 89.6
- molecule: "C=C(C)[C@@H]1CC[C@]2(CN)CC[C@]3(C)[C@H](CC[C@@H]4[C@@]5(C)CCC(=O)NC(C)(C)[C@@H]5CC[C@]43C)[C@@H]12"
  growth [%]: 81
- molecule: "CCCC1CCCCN1C(=O)OCC(C)C (stereo unspecified)"
  growth [%]: 105
- molecule: "Cn1cc(-c2csc(-c3cn(CCCN4CCCCC4)c4ccccc34)n2)c2cccnc21"
  growth [%]: -62.8
- molecule: "COc1cccc(-c2nn(-c3ccccc3)cc2-c2ccnc(NCCCNS(=O)(=O)c3cccc(F)c3)c2)c1"
  growth [%]: 24.5

For every listed record, write down its growth.
1. CN1CCN(c2nc(-c3cccc4ccccc34)nc3sc4c(c23)CCCCCC4)CC1
2. Cn1cc(-c2csc(-c3cn(CCNC(=O)OC(C)(C)C)c4ccccc34)n2)c2cccnc21
3. Cc1ccc(NC2CC(=O)N(c3c(C)cc(C)cc3C)C2=O)c(C)c1 (stereo unspecified)
4. O=S(=O)(NCCNc1cc(-c2cn(-c3ccccc3)nc2-c2cccc(O)c2)ccn1)c1ccc(C(F)(F)F)cc1

1: 98.8; 2: 59.2; 3: 102; 4: 46.5

Batch request: growth per item, same order as input.
1. Cc1ccc(Cc2cnc(NC(=O)/C=C/c3cccc(C)c3)s2)cc1
2. CSc1ccc(N(C)c2nc(C)nc3c2CCC3)cc1
3. COc1ccc(-c2cc(=O)oc3ccc(Cl)cc23)cc1F
4. NC1=NN(c2ccccc2)C(=O)/C1=C/c1ccc(Cl)cc1

1: 16.1; 2: 8.57; 3: 11.2; 4: 103

State the recorded growth for every item in the following list.
1. Fc1ccc(Nc2ccc3c(OCCCN4CCOCC4)cccc3n2)cc1F
2. COc1ccc(/C=C(\C#N)c2cc3ccccc3n2C(C)=O)cc1
3. Cc1nn2c(-c3nc4cc(Cl)c(Cl)cc4[nH]3)c(-c3ccc(F)cc3)nc2s1
4. Cn1cc(-c2nc(-c3c[nH]c4ncccc34)cs2)c2cc(Cl)ccc21

1: 16.1; 2: 57.1; 3: 39.3; 4: 9.88

Would you mind telling me what growth value was observed for `COc1ccc2c(c1)C/C(=C\c1cc(-c3ccc4c(c3)OCO4)n[nH]1)C2=O` ? 85.7

###

Tested on: OVCAR-3 ovarian
test summary: NCI-60 one-dose screen, 48 h
run conditions: 10 µM unless noted
The panel holds about 83,000 compounds, 20% with a hit somewhere; the sample as a whole holds those more often. Calls of active or inactive are those of the source. Rule for the calls: active = growth percent below 10; inactive = the rest.
Outcome (select one): class 1 = active, class 0 = inactive

- smiles entry: "O=C(/C=C/c1ccc2ccccc2c1)Nc1ncc(Cc2ccccc2)s1"
  discrete label: "class 0"
- smiles entry: "Cn1cccc1/C=C1/SC(=S)N(CCc2ccc(O)cc2)C1=O"
  discrete label: "class 0"
- smiles entry: "C[C@@H](Oc1ccc(C(=O)NS(=O)(=O)C(C)(C)C)cc1C(F)(F)F)c1ccc(Oc2ccccc2)cn1"
  discrete label: "class 1"
- smiles entry: "Oc1cccc2oc(=S)[nH]c12"
  discrete label: "class 0"
- smiles entry: "COc1ccc(NC(=S)N/N=C/c2ccccc2SSCCC(=O)OC[C@H]2O[C@H](O)[C@H](O)[C@@H](O)[C@@H]2O)cc1"
  discrete label: "class 0"

# lookup: test call for `C=C(C)[C@@H]1CC[C@]2(C)[C@H](CC[C@@H]3[C@H]4[C@H]5OC[C@@]4(CCC5(C)C)CC[C@]32C)[C@@]1(C)CCCN` class 0

Called result for `Cn1c(/C(C#N)=C/c2ccc3ccccc3c2)cc2ccccc21` class 1

Field: outcome | Entry: `N#Cc1c(-c2ccc(O)cc2)c2c(N)nn(-c3ccccc3)c2[nH]c1=O` class 0

Per the assay record, what outcome was assigned to `C=C(C)[C@@H]1CC[C@]2(C(=O)NNC(=O)c3cccnc3)CC[C@]3(C)[C@H](CC[C@@H]4[C@@]5(C)CCCNC(C)(C)[C@@H]5CC[C@]43C)[C@@H]12` ? class 0
